Catalogue of EC50 readings, one per entry.
Experiment: Inhibitory activity against varicella zoster virus thymidine kinase (VZV TK-) 07/1 strain
Response body: numeric value in µM, unit text excluded.

The cases that follow already have their EC50 on record.
Smiles Data | Units | Quantitative Readout
Nc1nc(=O)n(CCOCP(=O)(O)O)cc1Br | µM | 9.14
CC(C)OP(=O)(O)COCCn1cnc2c(O)nc(N)nc21 | µM | 0.0151

Moving on to the next molecule.
# EC50 of `CCOP(=O)(O)COCCn1cnc2c(N)ncnc21` = 149

---

Test: Inhibitory activity against varicella zoster virus thymidine kinase (VZV TK+) YS strain
Observable: pEC50
Schema: pEC50 number; meaning minus log10 of the concentration expressed in molar units.

The cases that follow already have their pEC50 on record.
Smiles Data | pEC50
Nc1nc(N)c2nc(Br)n(CCOCP(=O)(O)O)c2n1 | 4.64
Nc1nc(F)nc2c1ncn2CCOCP(=O)(O)O | 4.00
Nc1ccn(CCOCP(=O)(O)O)c(=O)n1 | 2.80
CC(C)OP(=O)(COCCn1ncc(N)nc1=O)OC(C)C | 3.54
CC(C)CCCCCOP(=O)(COCCn1cnc2c(N)nc(N)nc21)OCCCCCC(C)C | 5.20

# pEC50 of `Nc1ccn(CCOCP(=O)(O)O)c(=O)c1` = 3.58

---

Molecular target: Thymidine kinase (Human herpesvirus 3, UniProt Q6QCL9)
Sequence (Q6QCL9 whole entry): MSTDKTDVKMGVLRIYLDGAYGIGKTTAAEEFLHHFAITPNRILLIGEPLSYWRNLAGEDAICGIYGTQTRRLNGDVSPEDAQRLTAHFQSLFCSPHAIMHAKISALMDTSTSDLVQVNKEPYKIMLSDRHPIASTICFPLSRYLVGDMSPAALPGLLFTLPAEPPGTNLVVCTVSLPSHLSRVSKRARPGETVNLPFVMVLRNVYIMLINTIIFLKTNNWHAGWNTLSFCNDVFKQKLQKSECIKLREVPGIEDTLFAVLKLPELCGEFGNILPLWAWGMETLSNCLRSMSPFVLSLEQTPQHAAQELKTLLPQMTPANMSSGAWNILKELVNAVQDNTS
Assay: Inhibitory activity against varicella zoster virus thymidine kinase (VZV TK+) YS strain
Observable: EC50
Provide the measurement as a number trailed by its unit.

# EC50 of `Nc1cc2c(ncn2CCOCP(=O)(O)O)c(O)n1` = 5.55 µM

---

Assay: Inhibition of herpes simplex virus type 1 thymidine kinase (HSV-1 TK-) B2006 strain
Catalogue of EC50 readings, one per entry.
Response body: numeric value in µM, unit text excluded.

Compound | Units | EC50
Nc1ncnc2c1ccn2CCOCP(=O)(O)O | µM | 1100
Nc1nc(F)nc2c1ncn2CCOCP(=O)(O)O | µM | 68.6

# EC50 of `CC(C)CCCCCOP(=O)(O)COCCn1cnc2c(O)nc(N)nc21` = 597

# EC50 of `CCOP(=O)(O)COCCn1cnc2c(O)nc(N)nc21` = 12.6

# EC50 of `CC(C)OP(=O)(COCCn1cnc2c(O)nc(N)nc21)OC(C)C` = 642

# EC50 of `Nc1cc(N)c2ncn(CCOCP(=O)(O)O)c2n1` = 522

# EC50 of `Nc1nc(Cl)c2ncn(CCOCP(=O)(O)O)c2n1` = 0.487

# EC50 of `Nc1cc2c(ncn2CCOCP(=O)(O)O)c(O)n1` = 24.2

# EC50 of `Cc1nc(N)nc2c1ncn2CCOCP(=O)(O)O` = 522

# EC50 of `CCOP(=O)(O)COCCn1cnc2c(N)ncnc21` = 497

---

Test: Inhibitory activity against varicella zoster virus thymidine kinase (VZV TK+) OKA strain
Catalogue of pEC50 readings, one per entry.
Schema: pEC50 number; meaning minus log10 of the concentration expressed in molar units.

Smiles Data | Quantitative Readout
Nc1nc(Cl)c2ncn(CCOCP(=O)(O)O)c2n1 | 7.71

# pEC50 of `Nc1nc(F)nc2c1ncn2CCOCP(=O)(O)O` = 4.07

# pEC50 of `Nc1nccc2c1ncn2CCOCP(=O)(O)O` = 3.74

# pEC50 of `CC(C)OP(=O)(COCCn1cnc2c(N)nc(Cl)nc21)OC(C)C` = 5.90

# pEC50 of `Nc1ncc2ncn(CCOCP(=O)(O)O)c2n1` = 3.66

---

Experiment: Inhibitory activity against varicella zoster virus thymidine kinase (VZV TK-) 07/1 strain
pEC50: −log10 of the molar value.
Observable: pEC50

The cases that follow already have their pEC50 on record.
Smiles Data | pEC50
Nc1nc(N)c2nc(Br)n(CCOCP(=O)(O)O)c2n1 | 4.79
Nc1cccc2c1ncn2CCOCP(=O)(O)O | < 3.74
CC(C)OP(=O)(COCCn1c(Br)nc2c(O)nc(N)nc21)OC(C)C | < 3.96
Nc1nc(Cl)nc2c1ncn2CCOCP(=O)(O)O | 4.21

# pEC50 of `O=P(O)(O)COCCn1cnc2c(S)ncnc21` = < 3.76

# pEC50 of `CC(C)CCCCCOP(=O)(COCCn1cnc2c(N)nc(N)nc21)OCCCCCC(C)C` = < 4.41

# pEC50 of `CC(C)OP(=O)(COCCn1cnc2c(Cl)nc(N)nc21)OC(C)C` = 4.64

# pEC50 of `CC(C)OP(=O)(O)COCCn1cnc2c(N)nc(N)nc21` = < 3.82

# pEC50 of `Cc1nc(N)nc2c1ncn2CCOCP(=O)(O)O` = < 3.76

# pEC50 of `CC(C)CCCCCOP(=O)(COCCn1cnc2nc(N)nc(O)c21)OCCCCCC(C)C` = 4.30

# pEC50 of `CCOP(=O)(O)COCCn1cnc2c(O)nc(N)nc21` = 7.90

# pEC50 of `Nc1nnc(N)c2c1ncn2CCOCP(=O)(O)O` = < 3.76

# pEC50 of `Nc1cc(N)c2ncn(CCOCP(=O)(O)O)c2n1` = < 3.76

# pEC50 of `Nc1ccnc2c1ncn2CCOCP(=O)(O)O` = 2.96

# pEC50 of `Nc1cc2c(ncn2CCOCP(=O)(O)O)c(N)n1` = < 4.76

# pEC50 of `CC(C)OP(=O)(COCCn1c(Br)nc2c(N)nc(N)nc21)OC(C)C` = < 3.96

---

Experiment: Inhibitory activity against herpes simplex virus type 1 (HSV-1) thymidine kinase (TK) VMW 1837 strain
Catalogue of pEC50 readings, one per entry.
Schema: pEC50 number; meaning minus log10 of the concentration expressed in molar units.

Smiles Data | pEC50
Nc1ccn(CCOCP(=O)(O)O)c(=O)n1 | 3.40
Nc1nc(=O)n(CCOCP(=O)(O)O)cc1Br | 4.22
Nc1nc(N)c2nc(Br)n(CCOCP(=O)(O)O)c2n1 | 4.26

Moving on to the next compound.
# pEC50 of `CC(C)CCCCCOP(=O)(O)COCCn1cnc2c(O)nc(N)nc21` = 3.22

---

Experiment: Inhibitory activity against varicella zoster virus thymidine kinase (VZV TK-) 07/1 strain
Observable: pEC50
Schema: pEC50 number; meaning minus log10 of the concentration expressed in molar units.

Compound | pEC50
Nc1nccc2c1ncn2CCOCP(=O)(O)O | 3.59
Nc1nc(F)nc2c1ncn2CCOCP(=O)(O)O | 3.95
Nc1ccn(CCOCP(=O)(O)O)c(=O)c1 | 3.52

# pEC50 of `CC(C)OP(=O)(COCCn1ncc(N)nc1=O)OC(C)C` = 3.62

# pEC50 of `Nc1nc(O)c2nc(Br)n(CCOCP(=O)(O)O)c2n1` = 4.12

# pEC50 of `Nc1ncc2ncn(CCOCP(=O)(O)O)c2n1` = 4.01

# pEC50 of `Nc1nc(Cl)c2ncn(CCOCP(=O)(O)O)c2n1` = 7.19

# pEC50 of NC1=NC2N=CC=NC2C(=O)N1CCOCP(=O)(O)O (stereo unspecified) = 4.00

# pEC50 of `CC(C)CCCCCOP(=O)(O)COCCn1cnc2c(O)nc(N)nc21` = 4.06

# pEC50 of `CC(C)CCCCCOP(=O)(COCCn1cnc2c(N)ncnc21)OCCCCCC(C)C` = 5.18

# pEC50 of `Nc1nc(S)c2c(ncn2CCOCP(=O)(O)O)n1` = 4.18

# pEC50 of `CCOP(=O)(O)COCCn1cnc2c(N)nc(N)nc21` = 5.20

# pEC50 of `Nc1ccn(CCOCP(=O)(O)O)c(=O)n1` = 3.22

# pEC50 of `CC(C)OP(=O)(COCCn1cnc2c(O)nc(N)nc21)OC(C)C` = 4.08

# pEC50 of `Nc1cc2c(ncn2CCOCP(=O)(O)O)c(O)n1` = 5.49

# pEC50 of `CC(C)OP(=O)(COCCn1cnc2c(N)ncnc21)OC(C)C` = 4.25

# pEC50 of Nc1nc(N)c2ncn(CCOCP(=O)(O)O)c2n1 [PMEDAP] = 5.06

# pEC50 of `CC(C)CCCCCOP(=O)(COCCn1cnc2c(O)nc(N)nc21)OCCCCCC(C)C` = 4.46

---

Assay: Inhibitory activity against herpes simplex virus type 1 (HSV-1) thymidine kinase (TK) VMW 1837 strain
Observable: pEC50
Schema: pEC50 number; meaning minus log10 of the concentration expressed in molar units.

The cases that follow already have their pEC50 on record.
Smiles Data | Observable | Quantitative Readout
Nc1nc(N)c2ncn(CCOCP(=O)(O)O)c2n1 | pEC50 | 5.16
CC(C)OP(=O)(COCCn1cnc2c(O)nc(N)nc21)OC(C)C | pEC50 | 3.19
Nc1ccnc2c1ncn2CCOCP(=O)(O)O | pEC50 | 3.26
CC(C)OP(=O)(COCCn1c(Br)nc2c(O)nc(N)nc21)OC(C)C | pEC50 | 3.28
CC(C)OP(=O)(O)COCCn1cnc2c(N)ncnc21 | pEC50 | 3.02
Nc1ncc2ncn(CCOCP(=O)(O)O)c2n1 | pEC50 | 3.59

# pEC50 of `Nc1ncnc2c1ccn2CCOCP(=O)(O)O` = 3.26

# pEC50 of `Nc1nnc(N)c2c1ncn2CCOCP(=O)(O)O` = 2.98
